Biological target: RORβ (Homo sapiens, UniProt Q92753)
Construct: expressed in transfected cells; host or cells: HEK293
Sequence (Q92753 1-459 isoform Q92753-1): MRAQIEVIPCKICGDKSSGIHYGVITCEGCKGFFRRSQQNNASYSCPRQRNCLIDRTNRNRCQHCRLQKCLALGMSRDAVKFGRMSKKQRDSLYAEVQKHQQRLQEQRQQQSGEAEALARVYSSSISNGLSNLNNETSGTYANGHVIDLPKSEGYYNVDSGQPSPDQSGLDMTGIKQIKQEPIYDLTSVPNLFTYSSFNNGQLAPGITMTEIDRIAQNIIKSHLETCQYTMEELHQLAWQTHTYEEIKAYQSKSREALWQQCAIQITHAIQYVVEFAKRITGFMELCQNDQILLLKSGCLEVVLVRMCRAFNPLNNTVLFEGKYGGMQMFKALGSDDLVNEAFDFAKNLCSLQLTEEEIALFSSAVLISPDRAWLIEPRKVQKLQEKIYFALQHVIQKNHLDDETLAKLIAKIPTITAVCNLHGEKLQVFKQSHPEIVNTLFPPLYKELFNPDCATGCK
Experiment: RORβ inverse agonist reporter gene assay in HEK293
Format: cell-based
Details: new compound 43, read-out: RORβ inverse agonistic activity (IC50)
pIC50: −log10 of the molar value.
OBSERVABLE: pIC50

Would you kindly share the measured pIC50 for O=c1[nH]c2c(Cl)cc(C(O)(C(F)(F)F)C(F)(F)F)cc2c2ccccc12 ? < 4.70

###

Target: UniProt:P06401
Sequence (P06401 whole entry): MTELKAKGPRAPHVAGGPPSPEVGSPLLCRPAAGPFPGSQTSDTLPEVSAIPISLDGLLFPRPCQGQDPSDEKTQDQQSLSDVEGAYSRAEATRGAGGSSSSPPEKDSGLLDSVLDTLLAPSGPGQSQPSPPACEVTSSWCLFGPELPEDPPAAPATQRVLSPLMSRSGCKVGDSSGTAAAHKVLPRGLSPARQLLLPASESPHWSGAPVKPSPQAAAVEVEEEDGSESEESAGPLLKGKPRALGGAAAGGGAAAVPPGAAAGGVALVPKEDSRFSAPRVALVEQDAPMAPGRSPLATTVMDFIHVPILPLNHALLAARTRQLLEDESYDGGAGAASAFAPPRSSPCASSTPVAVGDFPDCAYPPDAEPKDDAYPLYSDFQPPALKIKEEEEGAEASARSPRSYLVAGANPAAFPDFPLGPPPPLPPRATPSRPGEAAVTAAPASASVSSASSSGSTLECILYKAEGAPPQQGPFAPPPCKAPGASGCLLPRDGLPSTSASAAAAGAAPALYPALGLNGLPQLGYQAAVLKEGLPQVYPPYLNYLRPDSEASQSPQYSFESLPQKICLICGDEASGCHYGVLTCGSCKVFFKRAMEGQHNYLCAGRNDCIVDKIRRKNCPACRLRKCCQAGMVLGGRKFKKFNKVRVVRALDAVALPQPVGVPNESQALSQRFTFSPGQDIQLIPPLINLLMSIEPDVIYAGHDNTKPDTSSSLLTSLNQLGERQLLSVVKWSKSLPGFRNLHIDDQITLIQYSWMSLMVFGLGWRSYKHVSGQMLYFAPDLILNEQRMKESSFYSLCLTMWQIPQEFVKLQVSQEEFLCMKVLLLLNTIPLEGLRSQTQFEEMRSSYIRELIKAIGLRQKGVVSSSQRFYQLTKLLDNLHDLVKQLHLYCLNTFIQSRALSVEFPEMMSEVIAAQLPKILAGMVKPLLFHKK
Experiment: T-47D alkaline phosphatase assay (PR antagonism)
Type: cell-based
Settings: alkaline phosphatase, T47D cells, progesterone 1 nM; new compound 43; read-out: PR antagonistic activity (IC50)
OBSERVABLE: pIC50
Quick note: pIC50 values are minus log10 of concentrations in mol/L.

Request the reported pIC50 associated with O=c1[nH]c2c(Cl)cc(C(O)(C(F)(F)F)C(F)(F)F)cc2c2ccccc12 [Compound 43] 6.46

###

Biological target: LXRβ (Homo sapiens)
Construct: CMX-GAL4N-hLXRβ-LBD; expressed in transfected cells; host or cells: HEK293
Assay: LXRβ reporter gene assay in HEK293
Type: cell-based
Conditions: read-out: LXRβ antagonistic activity (IC50)
OBSERVABLE: pIC50
Just so you know, pIC50 here is -log10 of the concentration in molar units; reply with that number alone.

Give pIC50 (LXRβ (Homo sapiens)) of the following compound: CCCCn1c(=O)c2ccc(C)cc2c2cc(C(O)(C(F)(F)F)C(F)(F)F)ccc21 [Compound 36] 5.52

What pIC50 appears in the records for this compound with LXRβ (Homo sapiens)? O=c1[nH]c2ccc(C(O)(C(F)(F)F)C(F)(F)F)cc2c2cccc(F)c12 [Compound 33] 5.51

Could you share what pIC50 was measured for CCCCn1c(=O)c2ccccc2c2cc(C(O)(C(F)(F)F)C(F)(F)F)c(OC)c(OC)c21 [Compound 25] , tested on LXRβ (Homo sapiens)? 5.02

Any idea what pIC50 came out for CCCCn1c(=O)c2ccccc2c2ccccc21 [Compound 7] on LXRβ (Homo sapiens)? 4.82

API: value(readout=pIC50, system=LXRβ (Homo sapiens)) for record CCCCn1c(=O)c2c(OC)c(OC)ccc2c2cc(C(O)(C(F)(F)F)C(F)(F)F)ccc21 [Compound 29] 5.49

Lookup: pIC50 / LXRβ (Homo sapiens) / CCCCCCn1c(=O)c2ccccc2c2cc(C(O)(C(F)(F)F)C(F)(F)F)ccc21 [Compound 16] 5.00

Any idea what pIC50 came out for CCCCn1c(=O)c2ccc(OC)cc2c2cc(C(O)(C(F)(F)F)C(F)(F)F)ccc21 [Compound 23] on LXRβ (Homo sapiens)? 5.62

Field: pIC50 (LXRβ (Homo sapiens)). Entry: CCCCn1c(=O)c2ccccc2c2cc(C(O)(C(F)(F)F)C(F)(F)F)c(OC)cc21 [Compound 19] 5.04

Enter reported pIC50 observed with LXRβ (Homo sapiens) for O=c1[nH]c2ccc(C(O)(C(F)(F)F)C(F)(F)F)cc2c2cc(F)ccc12 [Compound 35] 5.27

API: value(readout= pIC50, system= LXRβ (Homo sapiens), query= CCCCn1c(=O)c2cc(OC)ccc2c2cc(C(O)(C(F)(F)F)C(F)(F)F)c(OC)cc21 [Compound 27] ) 4.74

Lab note: need pIC50 for CCCn1c(=O)c2ccccc2c2cc(C(O)(C(F)(F)F)C(F)(F)F)ccc21 [Compound 15] on LXRβ (Homo sapiens), anyone have it? 5.16

###

Hi there, I'd appreciate the recorded pIC50 for every entry that follows.
Target: GR (Homo sapiens)
Sequence (P04150 whole entry): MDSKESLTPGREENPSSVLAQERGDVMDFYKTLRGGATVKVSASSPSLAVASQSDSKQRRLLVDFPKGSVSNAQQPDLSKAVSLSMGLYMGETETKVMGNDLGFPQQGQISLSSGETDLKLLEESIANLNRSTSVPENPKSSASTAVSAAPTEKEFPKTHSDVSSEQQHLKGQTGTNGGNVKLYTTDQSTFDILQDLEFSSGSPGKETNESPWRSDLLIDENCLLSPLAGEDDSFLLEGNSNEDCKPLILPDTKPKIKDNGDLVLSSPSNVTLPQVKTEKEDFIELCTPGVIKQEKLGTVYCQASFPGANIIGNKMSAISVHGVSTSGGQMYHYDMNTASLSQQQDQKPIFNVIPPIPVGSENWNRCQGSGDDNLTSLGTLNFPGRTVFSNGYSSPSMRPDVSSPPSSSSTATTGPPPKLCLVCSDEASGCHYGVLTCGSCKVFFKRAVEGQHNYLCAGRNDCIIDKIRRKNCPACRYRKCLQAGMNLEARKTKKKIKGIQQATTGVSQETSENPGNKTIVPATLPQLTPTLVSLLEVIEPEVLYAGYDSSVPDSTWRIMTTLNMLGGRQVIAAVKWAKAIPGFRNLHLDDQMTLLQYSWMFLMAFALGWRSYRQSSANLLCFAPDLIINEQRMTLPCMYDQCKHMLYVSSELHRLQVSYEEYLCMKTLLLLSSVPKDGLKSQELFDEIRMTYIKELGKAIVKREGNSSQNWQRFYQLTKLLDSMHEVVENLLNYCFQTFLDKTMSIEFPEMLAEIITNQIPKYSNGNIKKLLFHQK
Assay: GR reporter gene assay in HEK293
Details: reporter gene assay, HEK293; agonist dexamethasone 1 nM; read-out: GR antagonistic activity (IC50)
pIC50 (log units): -log10 of the concentration in mol/L.

Recorded pIC50 of O=c1[nH]c2c(F)cc(C(O)(C(F)(F)F)C(F)(F)F)cc2c2ccccc12 , please. 5.16

What measured pIC50 goes with CCCCn1c(=O)c2ccc(OC)cc2c2cc(C(O)(C(F)(F)F)C(F)(F)F)ccc21 ? 5.00

Value lookup for pIC50; key = CCCCn1c(=O)c2ccccc2c2cc(C(O)(C(F)(F)F)C(F)(F)F)c3c(c21)OCO3 6.12

I'd like to know its pIC50. The compound in question is O=c1[nH]c2ccc(C(O)(C(F)(F)F)C(F)(F)F)cc2c2cccc(F)c12 5.01

###

For each of the compounds below, state its pIC50.
Target: AR (Homo sapiens)
Sequence (P10275 1-920): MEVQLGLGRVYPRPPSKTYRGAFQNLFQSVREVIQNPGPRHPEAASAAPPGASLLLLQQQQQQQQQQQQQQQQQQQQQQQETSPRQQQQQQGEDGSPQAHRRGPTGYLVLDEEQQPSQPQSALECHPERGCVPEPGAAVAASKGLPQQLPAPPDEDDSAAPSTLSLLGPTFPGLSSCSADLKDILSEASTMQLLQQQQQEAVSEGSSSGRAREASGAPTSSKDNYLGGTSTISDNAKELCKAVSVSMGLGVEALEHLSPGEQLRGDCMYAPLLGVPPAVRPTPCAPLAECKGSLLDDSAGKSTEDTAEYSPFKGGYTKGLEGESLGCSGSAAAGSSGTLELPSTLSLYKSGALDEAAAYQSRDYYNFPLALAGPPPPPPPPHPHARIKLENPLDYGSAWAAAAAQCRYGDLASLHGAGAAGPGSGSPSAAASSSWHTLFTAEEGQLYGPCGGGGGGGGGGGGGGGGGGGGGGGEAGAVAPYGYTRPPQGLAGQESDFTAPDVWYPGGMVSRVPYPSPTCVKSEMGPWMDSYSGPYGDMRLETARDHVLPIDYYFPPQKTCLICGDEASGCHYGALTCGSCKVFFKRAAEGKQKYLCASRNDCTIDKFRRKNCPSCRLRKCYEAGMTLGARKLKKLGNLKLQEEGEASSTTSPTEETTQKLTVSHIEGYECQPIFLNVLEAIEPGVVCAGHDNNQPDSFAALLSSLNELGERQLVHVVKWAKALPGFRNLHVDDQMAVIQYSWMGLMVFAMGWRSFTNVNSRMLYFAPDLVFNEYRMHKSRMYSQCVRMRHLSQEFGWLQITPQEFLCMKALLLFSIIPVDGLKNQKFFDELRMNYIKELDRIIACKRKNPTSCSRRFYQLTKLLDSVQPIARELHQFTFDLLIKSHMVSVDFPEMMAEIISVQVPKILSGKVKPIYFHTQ
Assay: AR reporter gene assay in HEK293
Type: cell-based
Settings: reporter gene assay, HEK293; agonist dihydrotestosterone 0.3 nM; read-out: AR antagonistic activity (IC50), AR reporter gene
Scale note: pIC50 = -log10(concentration in M).

Any idea what pIC50 was measured for CCCCCCCCCn1c(=O)c2ccccc2c2cc(C(O)(C(F)(F)F)C(F)(F)F)ccc21 [Compound 17] ? 4.82

Name the reported pIC50 value associated with the compound CCc1cc(C(O)(C(F)(F)F)C(F)(F)F)cc2c1[nH]c(=O)c1ccccc12 [Compound 41] 4.85

If you can, please state the reported pIC50 value of CCCCn1c(=O)c2ccccc2c2cc(C(C)(C)C)ccc21 [Compound 10] . 4.77

###

Molecular target: LXRβ (Homo sapiens)
Construct: CMX-GAL4N-hLXRβ-LBD; expressed in transfected cells; host or cells: HEK293
Sequence (P55055 222-460 limits assumed): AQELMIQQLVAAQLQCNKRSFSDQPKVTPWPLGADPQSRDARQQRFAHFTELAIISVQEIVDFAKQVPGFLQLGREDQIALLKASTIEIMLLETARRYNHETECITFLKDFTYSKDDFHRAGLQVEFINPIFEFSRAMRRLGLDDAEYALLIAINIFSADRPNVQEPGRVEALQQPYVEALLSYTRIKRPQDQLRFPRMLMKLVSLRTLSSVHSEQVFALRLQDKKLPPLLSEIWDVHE
Test: LXRβ reporter gene assay in HEK293
Format: cell-based
Conditions: read-out: LXRβ antagonistic activity (IC50)
For each of the compounds below, state its IC50.

For the record CCCCn1c(=O)c2ccccc2c2cc(C(O)(C(F)(F)F)C(F)(F)F)c3c(c21)OCO3 , what value of IC50 is listed for LXRβ (Homo sapiens)? > 20 µM

Request: IC50, test system LXRβ (Homo sapiens), entry CCCCn1c(=O)c2ccccc2c2cc(C(O)(C(F)(F)F)C(F)(F)F)cc(OC)c21 5.5 µM

Under LXRβ (Homo sapiens): IC50 value of CCc1cc(C(O)(C(F)(F)F)C(F)(F)F)cc2c1[nH]c(=O)c1ccccc12 ? > 20 µM

# returns recorded IC50 (system: LXRβ (Homo sapiens)) for CCCCn1c(=O)c2ccccc2c2cc(C(C)(C)C)ccc21 > 20 µM
